# assayed_target: human nerve growth factor (beta-NGF) (human, UniProt P01138 122-241)
# Sequence (P01138 122-241): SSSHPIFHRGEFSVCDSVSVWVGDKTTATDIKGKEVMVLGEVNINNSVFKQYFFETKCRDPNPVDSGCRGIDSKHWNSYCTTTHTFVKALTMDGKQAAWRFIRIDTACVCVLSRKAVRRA
# experiment_summary: cell-based or functional assay
Each entry below carries its recorded IC50, PC12 cell survival.

{"binder": "1211G10 human IgG4 (antibody, V domains shown) VH: EVQLVQSGAEVRKPGSSVKVSCKAYGGTFSTYGISWVRQAPGQGLEWVGGIIPIFDTRNSAQSFQGRVTITADESTSTAYMEVSSLRSDDTAVYYCASSSRIYDMVSTLIPYYDMDVWGQGTMVTVSS VL: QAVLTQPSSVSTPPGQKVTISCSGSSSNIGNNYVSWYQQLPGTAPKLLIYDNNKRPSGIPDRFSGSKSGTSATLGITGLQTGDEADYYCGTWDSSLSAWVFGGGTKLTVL", "IC50, PC12 cell survival (nM)": 0.58}
{"binder": "1214A1 human IgG4 (antibody, V domains shown) VH: EVQLVQSGAEVKKPGSSVRVSCKASGGTFSTYGISWVRQAPGQGLEWIGGIIPIFDTGNSAQSFQGRVTITADESTSTAYMEVSSLRSDDTAVYYCASSSRIYDAHLQAYYDMDVWGQGTMVTVSS VL: QAVLTQPSSVSTPPGQKVTISCSGSSSNIGNNYVSWYQQLPGTAPKLLIYDNNKRPPGIPDRFSGSKSGTSATLGITGLQTGDEADYYCGTRDSSLSAWVFGGGTKLTVL", "IC50, PC12 cell survival (nM)": 0.52}
{"binder": "1150F1 human IgG4 (antibody, V domains shown) VH: EVQLVQSGAEVKKPGSSVKVSCKASGGTFSTYGISWVRQAPGQGLEWIGGIIPIFDTGNSAQSFQDRVTITADESTSTAYMEVGSLRSDDTAVYYCASSSRIYDLNPSLTAYYDMDVWGHGTMVTVSS VL: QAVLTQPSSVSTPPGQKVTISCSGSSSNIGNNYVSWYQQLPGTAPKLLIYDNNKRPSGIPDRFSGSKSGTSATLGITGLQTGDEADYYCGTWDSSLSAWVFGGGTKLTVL", "IC50, PC12 cell survival (nM)": 0.47}
{"binder": "1134D9 human IgG4 (antibody, V domains shown) VH: EVQLVQSGAEVKKPGSSVKVSCKASGGTFSTYGISWVRQAPGQGLEWIGGIIPIFDTGNSAQSFQGRVAITADESTSTAYMEVSSLRSDDTAVYYCASSSRIYDLNPSLTAYYDMDVWGQGTMVTVSS VL: QAVLTQPSSVSTPPGQKVTISCSGSSSNIGNNYVSWYQQLPGTAPKLLIYDNNKRPSGIPDRFSGSKSGTSATLGITGLQTGDEADYYCGTWDSGLSAWVFGGGTKLTVL", "IC50, PC12 cell survival (nM)": 0.54}
{"binder": "1252A5 IgG4 (antibody, V domains shown, tested as whole human IgG4; also called germlined 1133C11) VH: QVQLVQSGAEVKKPGSSVKVSCKASGGTFSTYGISWVRQAPGQGLEWMGGIIPIFDTGNSAQSFQGRVTITADESTSTAYMELSSLRSEDTAVYYCARSSRIYDLNPSLTAYYDMDVWGQGTMVTVSS VL: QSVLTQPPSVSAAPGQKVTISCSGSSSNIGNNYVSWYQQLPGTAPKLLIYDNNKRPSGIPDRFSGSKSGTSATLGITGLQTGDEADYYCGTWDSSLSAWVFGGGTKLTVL", "IC50, PC12 cell survival (nM)": 0.94}
{"binder": "1132H9 human IgG4 (antibody, V domains shown) VH: EVQLVQSGAEVKKPGSSVKVSCKASGGTFSTYGISWVRQAPGQGLEWIGGIIPIFDTGNSAQSFQGRVTITADESTSTAYMEVSSLRSDDTAVYYCASSSRIYDLNPSLTAYYDMDVWGQGTMVTVSS VL: QAVLTQPSSVSTPPGQKVTISCSGSSSDIGNNYVSWYQQLPGTAPKLLIYDNNKRPTGIPDRFSGSKSGTSATLGITGLQTGDEADYYCGTWDSSLSAWVFGGGTKLTVL", "IC50, PC12 cell survival (nM)": 0.55}
{"binder": "1133C11 human IgG4 (antibody, V domains shown) VH: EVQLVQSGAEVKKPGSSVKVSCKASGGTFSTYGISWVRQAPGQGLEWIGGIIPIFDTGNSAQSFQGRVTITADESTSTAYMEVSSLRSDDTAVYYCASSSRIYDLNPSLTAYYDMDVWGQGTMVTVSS VL: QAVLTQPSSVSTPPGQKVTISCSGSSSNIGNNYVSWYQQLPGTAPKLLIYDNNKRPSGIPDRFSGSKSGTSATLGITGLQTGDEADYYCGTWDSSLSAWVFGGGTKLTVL", "IC50, PC12 cell survival (nM)": 0.53}
{"binder": "1132A9 human IgG4 (antibody, V domains shown) VH: EVQLVQSGAEVKKPGSSVKVSCKASGGTFSTYGISWVRQAPGQGLEWIGGIIPIFGTGNSAQSFQGRVTITADESTSTAYMEVSSLRSDDTAVYYCASSSRIYDFEPSLIYYYDMDVWGQGTMVTVSS VL: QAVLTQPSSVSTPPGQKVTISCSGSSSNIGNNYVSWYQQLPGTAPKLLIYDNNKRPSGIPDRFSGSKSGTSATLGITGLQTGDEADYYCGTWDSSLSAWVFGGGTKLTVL", "IC50, PC12 cell survival (nM)": 0.9}
{"binder": "1165D4 human IgG4 (antibody, V domains shown) VH: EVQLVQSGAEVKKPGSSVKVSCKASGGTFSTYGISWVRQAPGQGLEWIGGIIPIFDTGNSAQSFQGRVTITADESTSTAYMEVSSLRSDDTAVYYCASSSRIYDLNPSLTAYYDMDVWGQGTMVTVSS VL: QAVLTQPSSVSTPPGQKVTISCSGSSSNIENNYVSWYQQLPGTAPKLLIYDNNKRPSGIPDRFSGSKSGTSATLGITGLQTGDEADYYCGTWDSSLSAWVFGGGTKLTVL", "IC50, PC12 cell survival (nM)": 0.41}
{"binder": "1160E3 human IgG4 (antibody, V domains shown) VH: EVQLVQSGAEVKKPGSSAKVSCKASGGTFSTYGISWVRQAPGQGLEWIGGIIPIFDTGNSAQSFQGRVTITADESTSTAYMEVSSLRSDDTAVYYCASSSRIYDLNPSLTAYYDMDVWGQGTMVTVSS VL: QAVLTQPSSVSTPPGQKVTISCSGSNSNIGNNYVSWYQQLPGTAPKLLIYDNNKRPSGIPDRFSGSKSGTSATLGITGLQTGDEADYYCGTWDSSLSAWVFGGGTKLTV", "IC50, PC12 cell survival (nM)": 0.4}
